Molecular target: T1, biotinylated Aβ1-40 peptide (biotinylated (N-biotinylated in Example 7))
T1 construct: captured on streptavidin (SA) chip; also called Biotinylated Aβ peptide 1-40; Aβ1-40 on SA chip
T1 sequence (peptide, as listed by the source): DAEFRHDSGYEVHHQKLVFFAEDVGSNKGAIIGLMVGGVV
Assay: SPR, Fab over Aβ1-40 on SA chip; KD=koff/kon
// reported pKd per item
Bear in mind: pKd is minus log10 of a mol/L concentration; give just that figure.

{"Binder": "9TL variant M2 Fab (Fab, V domains shown, Fab; human IgG2 CH1 and kappa CL) VH: QVQLVQSGAEVKKPGASVKVSCKASGYYTEAYYIHWVRQAPGQGLEWMGRIDPATGNTKYAPRLQDRVTMTRDTSTSTVYMELSSLRSEDTAVYYCASLYSLPVYWGQGTTVTVSS VL: DVVMTQSPLSLPVTLGQPASISCKSSQSLLYSDAKTYLNWFQQRPGQSPRRLIYQISRLDPGVPDRFSGSGSGTDFTLKISRVEAEDVGVYYCNQGTHYPVLFGQGTRLEIKR", "pKd": 8.46}
{"Binder": "9TL variant M50 Fab (Fab, V domains shown, Fab; human IgG2 CH1 and kappa CL) VH: QVQLVQSGAEVKKPGASVKVSCKASGYYTEAYYIHWVRQAPGQGLEWMGRIDPATGNTKYAPRLQDRVTMTRDTSTSTVYMELSSLRSEDTAVYYCASLYSLPFYWGQGTTVTVSS VL: DVVMTQSPLSLPVTLGQPASISCKSSQSLLYSDAKTYLNWFQQRPGQSPRRLIYQISRLDPGVPDRFSGSGSGTDFTLKISRVEAEDVGVYYCLQGTHYPVLFGQGTRLEIKR", "pKd": 7.07}

# context switch: different binder, same pKd
stdin: Could you share which pKd value was measured for 9TL variant M1 Fab (Fab, V domains shown, Fab; human IgG2 CH1 and kappa CL) VH: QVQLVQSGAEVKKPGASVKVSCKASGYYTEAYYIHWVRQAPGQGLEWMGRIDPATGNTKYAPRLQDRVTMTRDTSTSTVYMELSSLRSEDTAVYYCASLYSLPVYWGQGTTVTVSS VL: DVVMTQSPLSLPVTLGQPASISCKSSQSLLYSDAKTYLNWFQQRPGQSPRRLIYQISRLDPGVPDRFSGSGSGTDFTLKISRVEAEDVGVYYCMQGTHYPVLFGQGTRLEIKR ?
stdout: 8.57
